B1: TPR 5TU (parent)
chain: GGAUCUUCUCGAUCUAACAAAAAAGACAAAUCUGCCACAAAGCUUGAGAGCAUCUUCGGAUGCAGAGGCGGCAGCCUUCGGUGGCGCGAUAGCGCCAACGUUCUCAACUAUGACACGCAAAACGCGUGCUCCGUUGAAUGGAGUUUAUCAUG

variants of: B1; test: polymerase ribozyme fitness, log enrichment relative to wild type (log ratio); higher = more active; in vitro selection for triplet polymerase activity
Variants at the floor of the assay were thinned out.
polymerase ribozyme fitness (log ratio) class ranges: low: < -3; medium: ≥ -3 and < -1; high: ≥ -1

Request: Entry A28C G86U belongs to which category?
Result: low

Request: Entry C5U U33A G88U C96U U127C belongs to which category?
Result: low

Request: Entry A39G G50C C51G G58A C93G U139G belongs to which category?
Result: low

Data provenance: the RNAGym collection of RNA variant scans (doi:10.1073/pnas.2313332121)
